TEST SYSTEM: human Plasma Kallikrein (Homo sapiens (Human), UniProt P03952)
Sequence (P03952 391-638 limits assumed): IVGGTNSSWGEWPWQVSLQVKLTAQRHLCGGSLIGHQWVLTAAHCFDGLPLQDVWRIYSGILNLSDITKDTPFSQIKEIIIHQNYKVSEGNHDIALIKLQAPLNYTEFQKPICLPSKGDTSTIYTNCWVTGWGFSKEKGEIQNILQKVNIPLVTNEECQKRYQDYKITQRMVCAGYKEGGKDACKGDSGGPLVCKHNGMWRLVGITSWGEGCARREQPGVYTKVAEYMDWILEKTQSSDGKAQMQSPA
Sequence (P03952 20-390 partner limits assumed): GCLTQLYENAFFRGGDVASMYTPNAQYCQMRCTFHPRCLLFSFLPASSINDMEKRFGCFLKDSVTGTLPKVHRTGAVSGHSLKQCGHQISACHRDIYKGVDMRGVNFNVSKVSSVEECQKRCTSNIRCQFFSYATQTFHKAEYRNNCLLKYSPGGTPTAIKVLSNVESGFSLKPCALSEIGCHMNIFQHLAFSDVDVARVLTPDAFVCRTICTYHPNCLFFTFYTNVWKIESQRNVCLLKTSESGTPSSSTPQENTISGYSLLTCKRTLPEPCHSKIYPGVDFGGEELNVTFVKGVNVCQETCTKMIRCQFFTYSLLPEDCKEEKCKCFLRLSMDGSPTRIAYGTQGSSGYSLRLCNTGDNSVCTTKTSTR
TEST: Human whole blood kallikrein inhibition (ellagic acid-activated human plasma, Z-FR-2-AMC substrate)
Assay type: biochemical
TEST CONTEXT: human plasma activated with ellagic acid, Z-FR-2-AMC 40 μM, 37° C.; read-out: HWB EC50
pEC50: −log10 of the molar value.
PROPERTY LABEL: pEC50

In the examples that follow, each entry is paired with its recorded pEC50.
# input molecule: Cc1cc(N)nc(C)c1CNC(=O)c1nc(Cc2ccc3ncc(Cl)cc3c2)n2ccccc12 [Example 9] ; wanted: its pEC50
> 7.00

How about this molecule: Cc1cnc2ccc(Cn3cc(C(=O)NCc4ccc(N)nc4C)c(C#N)n3)cc2c1 [Example 82]
> 7.00

How about this molecule: Cc1cc(N)nc(C)c1CNC(=O)c1cnn(Cc2ccc3ncc(Cl)cc3c2)c1 [Example 2]
> 7.00

How about this molecule: Cc1cc(N)nc(C)c1CNC(=O)c1cn(Cc2ccc3ncc(Cl)cc3c2)nn1 [Example 10]
> 7.00

How about this molecule: Cc1cc(N)nc(C)c1CNC(=O)c1oc(Cc2ccc3ncc(Cl)cc3c2)nc1C(F)(F)F [Example 37]
> 7.00

How about this molecule: Cc1cc(N)nc(C)c1CNC(=O)c1nn(Cc2ccc3ncc(Cl)cc3c2)cc1C#N [Example 36]
> 7.00

How about this molecule: Cc1cc(N)nc(C)c1CNC(=O)c1ccn(Cc2ccc3ncc(Cl)cc3c2)n1 [Example 1]
> 7.00

Consider now this further molecule.
# input molecule: Cc1cc(N)nc(C)c1CNC(=O)c1nnc(Cc2ccc3ncc(Cl)cc3c2)o1 [Example 30] ; wanted: its pEC50
> 7.00

----------
Reported values of AUC for individual entries
TEST: Pharmacokinetic evaluation, oral exposure in rats
Assay type: in vivo
TEST CONTEXT: rat; male Sprague-Dawley rats, single oral dose 10 mg/kg via oral gavage, plasma; read-out: AUC

In the examples that follow, each entry is paired with its recorded AUC.
# input compound: Cc1cc(N)nc(C)c1CNC(=O)c1coc(Cc2ccc3ncc(Cl)cc3c2)n1 ; wanted: its AUC
1000 to 10000 ng·h/mL

How about this compound: Cc1cnc2c(C(N)=O)cc(Cn3cc(C(=O)NCc4c(C)cc(N)nc4C)c(C#N)n3)cc2c1
< 100 ng·h/mL

How about this compound: Cc1cc(N)nc(C)c1CNC(=O)c1cn(Cc2cc(C(C)(C)O)c3ncc(Cl)cc3c2)nc1C#N
< 100 ng·h/mL

How about this compound: Cc1cc(N)nc(C)c1CNC(=O)c1cn(Cc2cc(C#N)c3ncc(Cl)cc3c2)nc1C#N
< 100 ng·h/mL

How about this compound: Cc1cnc2ccc(Cn3cc(C(=O)NCc4c(C)cc(N)nc4C)c(C#N)n3)cc2c1
100 to 1000 ng·h/mL

New cases:
# input compound: N#Cc1nn(Cc2cc(F)c3ncc(Cl)cc3c2)cc1C(=O)NCc1ccc2c(N)nccc2c1 ; wanted: its AUC
< 100 ng·h/mL

How about this compound: COc1nn(Cc2ccc3ncc(Cl)cc3c2)cc1C(=O)NCc1c(C)cc(N)nc1C
1000 to 10000 ng·h/mL

How about this compound: Cc1cc(N)nc(C)c1CNC(=O)c1cnn(Cc2ccc3ncc(Cl)cc3c2)n1
1000 to 10000 ng·h/mL
